tested.target: Bifunctional dihydrofolate reductase-thymidylate synthase (Toxoplasma gondii)
Sequence (Q07422 whole entry): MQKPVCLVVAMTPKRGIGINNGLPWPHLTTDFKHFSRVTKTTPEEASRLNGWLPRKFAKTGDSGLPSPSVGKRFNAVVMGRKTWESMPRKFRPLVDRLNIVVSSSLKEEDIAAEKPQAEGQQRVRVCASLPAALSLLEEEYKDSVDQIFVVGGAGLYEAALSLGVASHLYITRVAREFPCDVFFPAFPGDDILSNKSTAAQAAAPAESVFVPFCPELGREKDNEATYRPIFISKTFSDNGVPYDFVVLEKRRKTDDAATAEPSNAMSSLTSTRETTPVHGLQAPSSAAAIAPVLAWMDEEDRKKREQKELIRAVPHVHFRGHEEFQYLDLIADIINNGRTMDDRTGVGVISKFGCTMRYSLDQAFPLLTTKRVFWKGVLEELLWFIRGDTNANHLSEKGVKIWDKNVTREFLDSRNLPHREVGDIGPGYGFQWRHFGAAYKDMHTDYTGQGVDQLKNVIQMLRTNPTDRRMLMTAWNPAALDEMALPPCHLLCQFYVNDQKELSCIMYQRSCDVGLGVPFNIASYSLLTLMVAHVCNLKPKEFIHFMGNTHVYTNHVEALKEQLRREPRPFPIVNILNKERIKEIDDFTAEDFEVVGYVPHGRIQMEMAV
assay.method.text: Inhibition of Toxoplasma gondii TS assessed as oxidation of tetrahydrofolate to dihydrofolate after 2 to 12 mins by spectrophotometry
measured.attribute: IC50 (nM)
Numbers only, in nM.

Solved entries (count: 5):
compound=Nc1nc2sc3cccc(CNc4ccc5c(c4)CN([C@@H](CCC(=O)O)C(=O)O)C5=O)c3c2c(=O)[nH]1 measured_attribute=IC50 measured_number=170
compound=Cc1nc2sc3cccc(CNc4ccc(C(=O)N[C@@H](CCC(=O)O)C(=O)O)cc4)c3c2c(=O)[nH]1 measured_attribute=IC50 measured_number=1700
compound="Cc1nc2ccc3ccc(CNc4ccc5c(c4)CN([C@@H](CCC(=O)O)C(=O)O)C5=O)cc3c2c(=O)[nH]1 [OSI-7904]" measured_attribute=IC50 measured_number=27
compound=Cc1[nH]c2nc(N)[nH]c(=O)c2c1Sc1ccc(C(=O)N[C@@H](CCC(=O)O)C(=O)O)cc1 measured_attribute=IC50 measured_number=90
compound=Nc1nc2sc3cccc(CNc4ccc(C(=O)N[C@@H](CCC(=O)O)C(=O)O)cc4)c3c2c(=O)[nH]1 measured_attribute=IC50 measured_number=140

--- query ---
Look at this compound and give its reported IC50. Cc1nc2sc3cccc(CNc4ccc5c(c4)CN([C@@H](CCC(=O)O)C(=O)O)C5=O)c3c2c(=O)[nH]1 3700

###

tested.target: Dihydrofolate reductase (Homo sapiens)
Sequence (P00374 whole entry): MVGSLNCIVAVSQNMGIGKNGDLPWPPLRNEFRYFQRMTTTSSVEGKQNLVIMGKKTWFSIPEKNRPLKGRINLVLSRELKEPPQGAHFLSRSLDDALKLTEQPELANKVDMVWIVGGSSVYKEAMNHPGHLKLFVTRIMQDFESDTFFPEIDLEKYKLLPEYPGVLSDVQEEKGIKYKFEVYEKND
measured.attribute: IC50

record_smiles=Cc1nc2sc3cccc(CNc4ccc(C(=O)N[C@@H](CCC(=O)O)C(=O)O)cc4)c3c2c(=O)[nH]1 result="> 20 µM"
record_smiles=Cc1nc2sc3cccc(CNc4ccc5c(c4)CN([C@@H](CCC(=O)O)C(=O)O)C5=O)c3c2c(=O)[nH]1 result="> 20 µM"

--- query ---
Look at this compound and give its reported IC50. Cc1nc2ccc3ccc(CNc4ccc5c(c4)CN([C@@H](CCC(=O)O)C(=O)O)C5=O)cc3c2c(=O)[nH]1 > 20 µM

The reported numbers originate from ChEMBL document CHEMBL1817595.
